- tested.on: opioid receptor subtype μ (Homo sapiens)
- Sequence (P35372 whole entry): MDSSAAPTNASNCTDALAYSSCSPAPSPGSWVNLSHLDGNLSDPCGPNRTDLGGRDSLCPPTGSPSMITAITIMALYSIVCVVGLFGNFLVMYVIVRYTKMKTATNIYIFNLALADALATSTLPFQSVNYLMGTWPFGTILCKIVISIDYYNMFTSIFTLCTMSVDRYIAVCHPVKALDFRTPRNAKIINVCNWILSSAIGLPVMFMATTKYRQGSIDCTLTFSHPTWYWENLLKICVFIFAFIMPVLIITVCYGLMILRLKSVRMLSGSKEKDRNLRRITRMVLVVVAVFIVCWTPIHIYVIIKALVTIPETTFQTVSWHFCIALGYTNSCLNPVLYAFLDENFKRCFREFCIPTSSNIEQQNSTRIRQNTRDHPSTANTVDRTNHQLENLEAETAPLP
- assay.text: biochemical
- Format: binding
- particulars: test concentration 10^−5 mol/L; [3H]Diprenorphine 0.4 nM; mean±SE; read-out: Inhibition percentage of competitive binding, μ
Kindly state inhibition at 10 µM for each of the entries shown.
Answer with the number, then the unit.

Illustrative cases are given below, each with its answer.
COc1ccccc1N1CCN([C@@H](C)[C@@H](O)c2ccccc2)CC1 [II-2] : 5.3%
COc1ccccc1N1CCN([C@@H](C)[C@H](O)c2ccc3c(c2)CC(=O)N3)CC1 (racemic) [IV-1] : 7.6%
COc1ccccc1N1CCN([C@H](C)[C@H](O)c2ccccc2)CC1 (racemic) [Compound I-20] : 13.4%
COc1ccccc1N1CCN([C@H](C)[C@H](O)c2ccccc2)CC1 [III-2] : 25.1%

Note: attention shifts to another entry.
Entry C[C@@H]([C@H](O)c1ccccc1)N1CCN(c2cccc(C(F)(F)F)c2)CC1 (racemic) [Compound I-1] : reported inhibition at 10 µM = ?
22.7%
